Origin of measurements: ChEMBL document CHEMBL1144926

target: Mu-type opioid receptor (Homo sapiens, UniProt P35372); assay: biochemical; type: cell-based, CHO
Sequence (P35372 whole entry): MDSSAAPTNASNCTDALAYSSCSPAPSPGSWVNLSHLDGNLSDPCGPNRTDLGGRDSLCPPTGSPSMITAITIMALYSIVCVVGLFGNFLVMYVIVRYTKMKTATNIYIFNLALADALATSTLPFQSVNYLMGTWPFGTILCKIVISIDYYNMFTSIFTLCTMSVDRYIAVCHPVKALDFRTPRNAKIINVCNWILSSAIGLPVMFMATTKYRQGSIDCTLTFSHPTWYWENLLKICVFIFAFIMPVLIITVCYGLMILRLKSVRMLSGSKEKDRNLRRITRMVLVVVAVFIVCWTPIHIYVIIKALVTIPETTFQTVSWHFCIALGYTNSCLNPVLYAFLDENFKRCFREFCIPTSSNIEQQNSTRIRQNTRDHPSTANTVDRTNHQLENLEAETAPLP
readout: pKi
pKi (log units): -log10 of the concentration in mol/L.

Take a look at these entries with their results.
>>> print(df.to_string())
         substance                               test_target  reported_measurement
0      H-YGGFLR-OH  Mu-type opioid receptor (Homo sapiens, UniProt P35372)                  7.39
1    H-YGPFLRR-NH2  Mu-type opioid receptor (Homo sapiens, UniProt P35372)                  4.90
2   H-YGPFLRRI-NH2  Mu-type opioid receptor (Homo sapiens, UniProt P35372)                  4.79
3  H-YGPFLRRIR-NH2  Mu-type opioid receptor (Homo sapiens, UniProt P35372)                  5.22
4   H-YGGFLRRIR-OH  Mu-type opioid receptor (Homo sapiens, UniProt P35372)                  7.62

Then there is this substance:
Quick check: pKi of H-YGPFLR-NH2 ?
4.71

====

target: Delta-type opioid receptor (Homo sapiens, UniProt P41143); assay: In vitro binding affinity to human Opioid receptor delta 1 on CHO cell membranes using [3H]diprenorphine displacement.
Sequence (P41143 whole entry): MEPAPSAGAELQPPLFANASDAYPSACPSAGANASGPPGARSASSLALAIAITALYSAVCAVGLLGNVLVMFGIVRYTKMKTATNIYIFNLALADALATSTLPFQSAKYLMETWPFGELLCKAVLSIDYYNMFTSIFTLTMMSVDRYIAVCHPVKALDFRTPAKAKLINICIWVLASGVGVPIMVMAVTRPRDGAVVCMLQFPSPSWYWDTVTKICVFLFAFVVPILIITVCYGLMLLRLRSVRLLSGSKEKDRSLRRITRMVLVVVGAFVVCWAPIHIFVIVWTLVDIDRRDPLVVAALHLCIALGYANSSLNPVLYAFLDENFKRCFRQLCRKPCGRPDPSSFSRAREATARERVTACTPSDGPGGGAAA
Reported log10 of Ki values for a set of substances
Units before log transform: µM; reported quantity: Ki; transform: log10.

I have this substance here, H-YGPFLRRI-NH2 , and I need its recorded log10 of Ki.
1.21

Cool, now H-YGPFLRR-NH2
1.18

Next entry: H-YGPFLR-NH2
1.10

Try the substance H-YGGFLRRIR-OH
-2.01

Repeat for the following substance: H-YGGFLR-OH
-2.04

Input H-YGPFLRRIR-NH2
1.12

====

molecular target: Kappa-type opioid receptor (Homo sapiens, UniProt P41145); test: biochemical; type: cell-based, CHO
Sequence (P41145 whole entry): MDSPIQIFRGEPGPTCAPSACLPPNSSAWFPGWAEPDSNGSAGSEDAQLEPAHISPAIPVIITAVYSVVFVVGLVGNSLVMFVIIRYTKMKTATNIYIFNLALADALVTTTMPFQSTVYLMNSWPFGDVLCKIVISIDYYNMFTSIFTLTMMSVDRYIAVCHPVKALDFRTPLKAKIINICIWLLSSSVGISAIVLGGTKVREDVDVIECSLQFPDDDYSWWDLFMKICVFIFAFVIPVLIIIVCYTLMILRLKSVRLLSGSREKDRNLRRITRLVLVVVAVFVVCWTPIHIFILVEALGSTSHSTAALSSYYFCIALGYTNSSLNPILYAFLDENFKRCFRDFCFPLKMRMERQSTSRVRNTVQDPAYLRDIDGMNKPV
Below: a set of entries, each annotated with reported pKi.
API: returns pKi as number; meaning -log10 of concentration in mol/L.

compound structure string	test target	reported measurement
CC[C@H](C)[C@H](NC(=O)[C@H](CCCNC(=N)N)NC(=O)[C@H](CCCNC(=N)N)NC(=O)[C@H](CC(C)C)NC(=O)[C@H](Cc1ccccc1)NC(=O)CNC(=O)CNC(=O)[C@@H](N)Cc1ccc(O)cc1)C(=O)N[C@@H](CCCNC(=N)N)C(=O)N1CCC[C@H]1C(=O)O	Kappa-type opioid receptor (Homo sapiens, UniProt P41145)	9.46

Which pKi value is on record for CC[C@H](C)[C@H](NC(=O)[C@H](CCCN=C(N)N)NC(=O)[C@H](CCCN=C(N)N)NC(=O)[C@H](CC(C)C)NC(=O)[C@H](Cc1ccccc1)NC(=O)CNC(=O)CNC(=O)[C@@H](N)Cc1ccc(O)cc1)C(=O)N[C@@H](CCCN=C(N)N)C(=O)N1CCC[C@H]1C(=O)N[C@@H](CCCCN)C(N)=O ?
10.23

Repeat with CC(C)C[C@H](NC(=O)[C@H](Cc1ccccc1)NC(=O)[C@@H]1CCCN1C(=O)CNC(=O)[C@@H](N)Cc1ccc(O)cc1)C(=O)N[C@@H](CCCN=C(N)N)C(=O)N[C@@H](CCCN=C(N)N)C(=O)N[C@@H](CCCN=C(N)N)C(N)=O
8.18
